These data points were gathered from the nanobody polyreactivity screen of Harvey et al. (2022).

Assay: yeast display, Sf9 membrane polyspecificity reagent, FACS + sequencing; frameworks hold sequencing errors

CHAIN_SEQUENCE: QVQLVESGGGLVQAGGSLRLSCAASGITFIKNAMGWYRQAPGKERELVAAISRSGGRTYYADSVKGRFTISRDNAKNTVYLQMNSLKPEDTAVYYCAAVTQRSYFYDYWGQGTQVTVSS
polyreactivity (PSR sort gate): high polyreactivity
--
CHAIN_SEQUENCE: QVQLVESGGGLVQAGGSLRLSCAGSGRIFGGYAMGWYRQAPGTERELVAAISRRGGSTYYADSVKGRFTISRDNAKNTVYLQMNSLKPEDTAVYYCARDYGGVGAPGSAGAYDYWGQGTQVTVSS
polyreactivity (PSR sort gate): high polyreactivity
--
CHAIN_SEQUENCE: QVQLVESGGRLVQARGSLRLSCAASGRIFAYYTLGWYRQAPGKERELVAVISGSGGRTYYADSVKGRFTISRDNAKNTVYLQMNSRKPDDTAVYYCAAYYQGIKYDYWGQGTQVTVSS
polyreactivity (PSR sort gate): high polyreactivity
--
CHAIN_SEQUENCE: QVQLVESGRGLVQAGGSLRLSCAASGSTFRGNAMGWYRQATGKERELVAAITRSGGRTYYADSVKGRFTISRDNAKNTVYLQMNSLKPEDTAVYYCAVEYKYPGYDYWGPGTQVTVSS
polyreactivity (PSR sort gate): high polyreactivity

----------
Test: yeast display, Sf9 membrane polyspecificity reagent, FACS + sequencing; frameworks hold sequencing errors
REPORTED_ENDPOINT: polyreactivity (PSR sort gate)

Examples with their reported polyreactivity (PSR sort gate) follow.
CHAIN_SEQUENCE: QVQLVESGGGLVQAGGSLRLSCAASGSIFSYYAMGWYRQAPGKERELVAAISSGVSSTYYADSVKGRFTISRDNAKNTVYLQMNSLKPEYTAVYYCNADRPYRLNEYWGQGTQVTVSS
polyreactivity (PSR sort gate): high polyreactivity
--
CHAIN_SEQUENCE: QGQLVESGGGLVQAGGRLRLSCAASGSTLWRYAMGWYRQAPRKERELVAGISRGGGSTYYADSVKGRFTISRDNAKNTVYLQMYSLKPEDTGVYYCATPVNQVRGAFDYWGQGTQVSVSS
polyreactivity (PSR sort gate): low polyreactivity
--
CHAIN_SEQUENCE: QVQLVESGGGLVQAGGSLRLSCAASGYTFSYNAMGWYRQAPGKERELVAAISRSGGSTYYADSVKGRFTISRDNAKNTVYLQMNSLKPEDTAVYYCAAKRVSVPYGYWGQGTQVTVSS
polyreactivity (PSR sort gate): high polyreactivity
--
CHAIN_SEQUENCE: QVQLVESGGGLDQAGGSLRLSCAASGFIFVRNAMGWYRQPPGKERELVAAITRSGGSTSYADSVKGRFTISRDNAKNTVYLQMNSLKPEDTAVYYCASERYPWQLYWSYYGYYYWGQGTQVTVSS
polyreactivity (PSR sort gate): high polyreactivity
--
CHAIN_SEQUENCE: QVQLVESGGGLVQAGGSLRFSCAASGFIFVVNAMGGSRQAPGKEREFVAVISSSTGSTYYADSVKGRFTISRDNAKTTVYLQMNSLKPEDTAVYYCAAASRRRRPLKRMDYWGQGTQVTVSS
polyreactivity (PSR sort gate): low polyreactivity

Exercise: What value of polyreactivity (PSR sort gate) has been recorded for this entry: QVQLVESGGGLVQAGGSLRLSCAASGRIFARNAMGWYRQAPGKERELVAVITSRGGSTYYADSVKGRFTISRDNAKNTVYLQMNSLKPEDTAVYYCAARYSGEYGYWGQGTQVTVSS
Key: high polyreactivity

Exercise: And then QFQLVESGGGLVQAGGSLRLSCAASGRIFYKYVMGWYRQAPGKERELVAAINLSGGTTYYADSVKGRFTISRDNAKNTVYLQMNSLKPEDTAVYYCAADSFTLTHYYWGQGTQVTVSS , what is it?
Key: low polyreactivity

Exercise: And then QVQLVDSGGGLVQAGGSLRLSCAASGITFTRYAMGWYRQAPGKERELVAAISSGGRTNYADSVKGRFTISRDNAKNTVYLQMNSLKREDTAVYYCNALYRARWGLGTQVTVSS , what is it?
Key: high polyreactivity

Exercise: And then QVQLVESGGGLVQAGGSLRLSCAASGSIFYYYVMGWYIQAPGKERELVAAISSGGGTNYADSVKGRFTISRDNAKNSVYLQMNSLNPEDTAVYYGAKASAYGLANDYDYWGQGTQVTVSS , what is it?
Key: low polyreactivity

Exercise: And then QVQLVESGGGLVQAGGSLRLSCAASGRIWVYAMGWYRQAPGKERELVATITYNSGRTYYADSVKGRFTISRDNAKNTVYLQMNSLKPEDTAVYYCNADFWYSYRRGYGYWGQGTQVTVSS , what is it?
Key: high polyreactivity

Exercise: And then QVQLVESGGGLVQAGGSLRLSCAASGRIFYPNVMGWYRQAPGKERELVAAITWSSGSTYYADSVKGRFTISRDNAKNTVYLQMNSLKPEDTAVYYCAAGLRWHRKFYYWGQGTQVTVSS , what is it?
Key: high polyreactivity

----------
Assay: yeast display, Sf9 membrane polyspecificity reagent, FACS + sequencing; frameworks hold sequencing errors
REPORTED_ENDPOINT: polyreactivity (PSR sort gate)

CHAIN_SEQUENCE: QVQLVESGGGLVQAGGSLRLSCAASGSTFFRYAMGWYRQAPGKERELVAVINRGGSTYYADSVKGRFTISRDNAKNTVYLQMNSLKPEDTAVYYCAKRVFYPGAYRYYYWGQGTQVTVSS
polyreactivity (PSR sort gate): high polyreactivity

CHAIN_SEQUENCE: QVQLVESGGGLVQAGGSLRLSCAASGITFYPYTMGWYRQAPGKERELVASISTSGTNYADSVKGRFTISRDNAKNTVYLQMNSLKPEDTAVYYCAADIWSYYRSTHVDSWGQGTQVTVSS
polyreactivity (PSR sort gate): low polyreactivity

CHAIN_SEQUENCE: QVQLVESGGGLVQAGGSLRLSCAASGSTFDTNAMGWYRQAPGKERELVASISSAGSTNYADSVKGRFTISRDNAKNTVYLQMNSLKPEDTAVYYCAKYYGQFYPPTLGYWGQGTQVTVSS
polyreactivity (PSR sort gate): low polyreactivity

CHAIN_SEQUENCE: QVQLVESGGGLVQAGGSLRLSCAASGFTFTRYAMGWYRQAPGKERELVAAISRSGTSTYYADSVKGRFTISRDNAKNTVYLQMNSLKPEDTAVYYCAAYFGTTGRYALYDYWGQGTQVTVSS
polyreactivity (PSR sort gate): high polyreactivity

Exercise: What value of polyreactivity (PSR sort gate) has been recorded for this entry: QVQLVESGGGLVQAGGSLRLSCAASGSIFTPYAMGWYRQAPGKERELGATISWSGGRTYYADSVKGRFTISRDNAKNTVYLQMNSLKPEDSAVYYCAARGYSSEYDYWGQGTQVTVSS
Key: high polyreactivity

----------
Assay: yeast display, Sf9 membrane polyspecificity reagent, FACS + sequencing; frameworks hold sequencing errors
REPORTED_ENDPOINT: polyreactivity (PSR sort gate)

Examples with their reported polyreactivity (PSR sort gate) follow.
CHAIN_SEQUENCE: QVQHVESGAGLVQAGGSLRLSCAASGRTFYYYAMGWYRQAPGKERELVAAISTNGGSTSYADSVKGRFTISRDNAKNTVYLQMNSLKPEDSAVYYSAAYYRTPTDVEYDYWGQGTQVTVSS
polyreactivity (PSR sort gate): high polyreactivity
--
CHAIN_SEQUENCE: QVQLVESGGGLVQAGGSLRLSCAASGSIFSTYAMGWYRQAPGKERELVAAISGSGGRTYYADSVKGRFTISRDNAKNTVYLQMNSLKPEDTAVYDCASRVFRGLGEYYWGQGTQVTVSS
polyreactivity (PSR sort gate): high polyreactivity
--
CHAIN_SEQUENCE: QVQLVESGGGLVQAGGSLRLSCAASGFIFLINAMGWYRQAPGKERELVAGITSGGGNTYYADSVKGRFTISRDNAKNTVYLQMYSLKPEDTAVFYCAARLFDYWGQGTQVTVSS
polyreactivity (PSR sort gate): low polyreactivity
--
CHAIN_SEQUENCE: QVQLVESGGGLVQAGGRLRLICAASGSTFVTNYMGWYRQAPGKERELVAAISSGTSTNYADSVKGRFTISRDNAKNSVYLPMNSLTPEDTAVYYCAADSLKRYDYWGQGTQVTVSS
polyreactivity (PSR sort gate): low polyreactivity

Turning to the following sequence.
Exercise: What value of polyreactivity (PSR sort gate) has been recorded for this entry: QVQLVESGGGLVQAGGSLRLSCAASGSIFESNGMGWYRPAPGKERELVASISNGDITYYADSVKGRFTISRDNAKNTVYLQMISVKPEYTAVYYCAATLYRNYVIFRYDYWGQGTQLTVSS
Key: low polyreactivity

----------
Assay: yeast display, Sf9 membrane polyspecificity reagent, FACS + sequencing; frameworks hold sequencing errors
REPORTED_ENDPOINT: polyreactivity (PSR sort gate)

Examples with their reported polyreactivity (PSR sort gate) follow.
CHAIN_SEQUENCE: QVQLVESGGGLVQAGGSLRLSCAASGSTFALYAMGWSRPAPGKERELVAAITWSGTGTYYADSVKGRFTISRDNAKNTVYLQMNSLKPEDTAVYYCNAEYWWWGLGNDYWGQGTQVTVSS
REPORTED_ENDPOINT: polyreactivity (PSR sort gate)
RESULT: low polyreactivity
//
CHAIN_SEQUENCE: QVQLVESGGGLVQAGGSLRLSCAASGRTFAAYAMGWYRQAPGKEREFVADITYSGGSTTYADSVKGRFTISRDNAKNTVYLQMNSLKPEDTAVYYCNKLAYTRGWRGFVWYDYWGQGTQVTVSS
REPORTED_ENDPOINT: polyreactivity (PSR sort gate)
RESULT: low polyreactivity
//
CHAIN_SEQUENCE: QVQLVESGGGLVQAGGSLRLSCAASGYTFENYVKGWYSQAPGKERELVAAISSRGGSTYYADSVKGRFTISRDNAKNTVYLQMNSLKPEDTAVYYCAARARQTGPYRSRYNYWGQGTQVTVSS
REPORTED_ENDPOINT: polyreactivity (PSR sort gate)
RESULT: high polyreactivity
//
CHAIN_SEQUENCE: QVQLVESGGCLVQAGGSLRLRCAASGSSFAYNDMGWDRQAPGKDRELVATIRNGGSTYYADSVKGRFTISRDNAKNTVYLQRNSLKPEDTAVYYCAAVPLWDYKFCYYLLYDYWGQGTQVNVSS
REPORTED_ENDPOINT: polyreactivity (PSR sort gate)
RESULT: low polyreactivity
//
CHAIN_SEQUENCE: QVQLVESGGGLVQAGGSLRLSCAASGIIFRWYAMGWYRQAPGKERELVAAISRSGSSTYYADSVKGRFTISRDNAKNTVYLQMNSLKPEDTAVYYCNAEYQAPTEKGRYYYPWPYEYWGQGTQVTVSS
REPORTED_ENDPOINT: polyreactivity (PSR sort gate)
RESULT: high polyreactivity

Exercise: What value of polyreactivity (PSR sort gate) has been recorded for this entry: QVQLVESGGGLVQAGGSLRLSCAASGLTFYGYGMGWYRQAPGKERELVASITSGGNTYYADSVKGRFTISRDNAKNTVYLQMNSLKPEDTAVYYCAVTAIALYYSSGYYWGQGTQVTVSS
Key: low polyreactivity

Exercise: And then QVQLVESGGGLVQAGGSLRLSCAAYGFTFSWYAMGWYRQAPGKERELVAAISSSGGSTYYADSVKGRFTISRDNAKNTVYLQMNSLKPEDTAVYYCNAYRSASVVVGYDYWGQGTQVTVSS , what is it?
Key: high polyreactivity

Exercise: And then QVQLVESGGGLVQAGGSLRLSCAASGITFPRYTMGWYRPAPGKERELVAAISSGGSTYYADSVKGRFTISRDNAKNTVYLQMNSLKPEDTAVYYCNAVVPYWYYIYDYWGQGTQVTVSS , what is it?
Key: high polyreactivity

Exercise: And then QVQLGESGGGLVQAGGSLRLSCAASGFTSVRYAKGWYRQAPGKERELVAAITWNGGSTYYADSVKGRFTISRDNAKKSVYLQMNSLKPEDTAVYYCAKDTPYRYSVAYDYWGQGTQVTVSS , what is it?
Key: high polyreactivity

Exercise: And then QVQLVESGGGLVQAGGSLRLSCAASGSTFRYYAMGWYRQAPGKERELVAAISWSGGSTYYADSVKGRFTISRDNAKNTVYLQMNSLKPEDTEVYYCNKAWFPYYYYRFDYWGQGTQVTVSS , what is it?
Key: high polyreactivity

Exercise: And then QVQLVESGGGLVQAGGSLRLSCAASGRIFATNAMGWYRQAPGKERELVATITRSAGRTYYADSVKGRFTISRDNEKNTVYLQMNILKPDVTAVYYCAADGYSTAVDDTVRYIVEYEFWGQGTQVTVSS , what is it?
Key: low polyreactivity
